Origin of measurements: patent US20210355194A1

# system name: human ACE2 (human, UniProt Q9BYF1 18-740)
# Sequence (Q9BYF1 18-740 limits assumed): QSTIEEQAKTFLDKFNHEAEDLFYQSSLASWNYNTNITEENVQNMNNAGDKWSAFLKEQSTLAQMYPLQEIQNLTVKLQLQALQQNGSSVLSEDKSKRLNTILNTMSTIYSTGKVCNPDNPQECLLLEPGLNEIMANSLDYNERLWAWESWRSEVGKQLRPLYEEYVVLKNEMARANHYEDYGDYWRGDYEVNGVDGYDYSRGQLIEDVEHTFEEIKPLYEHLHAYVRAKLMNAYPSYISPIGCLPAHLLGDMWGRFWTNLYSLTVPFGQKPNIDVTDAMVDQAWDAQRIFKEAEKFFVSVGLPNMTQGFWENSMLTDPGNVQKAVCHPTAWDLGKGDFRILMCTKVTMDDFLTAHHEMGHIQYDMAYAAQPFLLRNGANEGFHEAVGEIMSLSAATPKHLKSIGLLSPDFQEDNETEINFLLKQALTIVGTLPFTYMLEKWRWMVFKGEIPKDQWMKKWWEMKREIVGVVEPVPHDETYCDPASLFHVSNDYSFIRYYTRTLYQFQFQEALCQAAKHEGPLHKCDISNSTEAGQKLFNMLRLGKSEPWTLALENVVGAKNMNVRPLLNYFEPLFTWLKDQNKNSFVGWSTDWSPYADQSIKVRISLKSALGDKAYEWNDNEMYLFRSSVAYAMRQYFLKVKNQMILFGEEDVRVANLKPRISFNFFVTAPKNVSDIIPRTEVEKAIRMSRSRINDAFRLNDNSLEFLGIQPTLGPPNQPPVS
measure name: IC50 (nM)
Write the answer as a number in nM, unit excluded.

Some solved cases for reference:
binder	IC50 / nM
4-52 (VHH) VHH: EVQLVESGGGLVQPGGSLRLSCAASGRSFSNSVMGWFRQAPGKEREFVARITWNGGSTYYADSVKGRFTISADNSKNTAYLQMNSLKPEDTAVYYCATTENPNPRWGQGTLVTVSS	0.35
4-39 (VHH) VHH: EVQLVESGGGLVQPGGSLRLSCAASGRTFSNAAMGWFRQAPGKEREFVARILWTGASRNYADSVKGRFTISADNSKNTAYLQMNSLKPEDTAVYYCATTENPNPRWGQGTLVTVSS	1.15
4-17 (VHH) VHH: EVQLVESGGGLVQPGGSLRLSCAASGQLANFASYAMGWFRQAPGKEREFVAAITRSGSSTVYADSVKGRFTISADNSKNTAYLQMNSLKPEDTAVYYCATTMNPNPRWGQGTLVTVSS	0.721
4-121 (VHH) VHH: EVQLVESGGGLVQPGGSLRLSCAASGTAASFNPMGWFRQAPGKEREFVAAITSGGSTNYADSVKGRFTISADNSKNTAYLQMNSLKPEDTAVYYCAAIAYEEGVYRWDWGQGTLVTVSS	0.91
4-101 (VHH) VHH: EVQLVESGGGLVQPGGSLRLSCAASGRTFSNAAMGWFRQAPGKEREFVARILWTGASRSYADSVKGRFTISADNSKNTAYLQMNSLKPEDTAVYYCATTENPNPRWGQGTLVTVSS	0.568

# ---- query binder ----
Tell me its IC50 given 4-54 (VHH) VHH: EVQLVESGGGLVQPGGSLRLSCAASGRTFSDARMGWFRQAPGKEREFVGAVSWSGGTTVYADSVKGRFTISADNSKNTAYLQMNSLKPEDTAVYYCATTEDPYPRWGQGTLVTVSS as the entry.
2
